Values were extracted from patent US7897573B2.

Reported AUC0-last values for a set of substances
procedure details: Pharmacokinetic profiles of PEGylated peptides in Fisher 344 rats
Type: in vivo, rat
measurement conditions: 100 μg agonist/kg, plasma RIA, mean N = 3
Procedure: Pharmacokinetic profiles of PEGylated peptides. Healthy Fisher 344 rats (3 animals per group) were injected with 100 μg agonist/kg (agonist amount based on peptide content and dissolved in PBS buffer). Blood samples were drawn 3, 12, 24, 48, 72, 96 and 168 hour post dosing and the peptide content in plasma was analysed by a radio-immunoassay (RIA) directed against the N-terminus of the peptide. […]
State just the number; it will be interpreted in ng·h/mL.

Below are worked cases with known answers.
substance	unit annotation	AUC0-last
C6-HSDAVFTEQY(OMe)TOrnLRAibQVAAAibOrnYLQSIOrnC(PEG20K)OrnGGPSSGAPPPC(PEG20K)-NH2 (HSDAVFTEQYTXLRXQVAAXXYLQSIXCXGGPSSGAPPPC; C6 acyl, two PEG20K, C-terminal amide; Synthetic sequence PEGylated VPAC2 receptor agonist) [Agonist P505]	ng·h/mL	7006
C6-HSDAVFTEQY(OMe)TOrnLRAibQLAAbuAibOrnYAibQAibIOrnOrnGGPSSGAPPPC(PEG20K)C(PEG20K)-NH2 (HSDAVFTEQYTXLRXQLAXXXYXQXIXXGGPSSGAPPPCC; C6 acyl, two PEG20K, C-terminal amide; Synthetic sequence PEGylated VPAC2 receptor agonist) [Agonist P525]	ng·h/mL	4740

Now take the following substance into account.
Can you share its AUC0-last? I mean this substance: C6-HSDAVFTEQY(OMe)TOrnLRAibQLAAbuAibOrnY(OMe)LQAibIOrnOrnGGPSSGAPPPC(PEG20K)C(PEG20K)-NH2 (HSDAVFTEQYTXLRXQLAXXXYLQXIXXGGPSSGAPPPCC; C6 acyl, non-natural residues, two PEG20K, C-terminal amide; Synthetic sequence PEGylated VPAC2 receptor agonist) [Agonist P574]
3408

----------
procedure details: Pharmacokinetic profiles of PEGylated peptides in Fisher 344 rats
Type: in vivo, rat
measurement conditions: 100 μg agonist/kg, plasma RIA, mean N = 3
Description: Pharmacokinetic profiles of PEGylated peptides. Healthy Fisher 344 rats (3 animals per group) were injected with 100 μg agonist/kg (agonist amount based on peptide content and dissolved in PBS buffer). Blood samples were drawn 3, 12, 24, 48, 72, 96 and 168 hour post dosing and the peptide content in plasma was analysed by a radio-immunoassay (RIA) directed against the N-terminus of the peptide. […]
measured metric: Cmax (ng/mL)
State just the number; it will be interpreted in ng/mL.

Below are worked cases with known answers.
substance	unit annotation	Cmax
C6-HSDAVFTEQY(OMe)TOrnLRAibQLAAbuAibOrnYAibQAibIOrnOrnGGPSSGAPPPC(PEG20K)C(PEG20K)-NH2 (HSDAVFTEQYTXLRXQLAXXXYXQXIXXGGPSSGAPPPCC; C6 acyl, two PEG20K, C-terminal amide; Synthetic sequence PEGylated VPAC2 receptor agonist) [Agonist P525]	ng/mL	133
C6-HSDAVFTEQY(OMe)TOrnLRAibQVAAbuAibOrnYLQAibIOrnOrnGGPSSGAPPPC(PEG40K)-NH2 (HSDAVFTEQYTXLRXQVAXXXYLQXIXXGGPSSGAPPPC; C6 acyl, PEG40K on Cys, C-terminal amide; Synthetic sequence PEGylated VPAC2 receptor agonist) [Agonist P511]	ng/mL	100
C6-HSDAVFTEQY(OMe)TOrnLRAibQVAAAibOrnYLQSIOrnOrnC(PEG20K)GGPSSGAPPPC(PEG20K)NH2 (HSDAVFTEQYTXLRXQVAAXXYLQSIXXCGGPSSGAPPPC; C6 acyl, two PEG20K, C-terminal amide; Synthetic sequence PEGylated VPAC2 receptor agonist) [Agonist P562]	ng/mL	120

Now take the following substance into account.
Can you share its Cmax? I mean this substance: C6-HSDAVFTEQY(OMe)TOrnLRAibQVAAAibOrnYLQSIOrnK(CO(CH2)2SPEG20K)OrnGGPSSGAPPPC(PEG20K)-NH2 (HSDAVFTEQYTXLRXQVAAXXYLQSIXXXGGPSSGAPPPC; C6 acyl, two PEG20K, C-terminal amide; Synthetic sequence PEGylated VPAC2 receptor agonist) [Agonist P499]
132
